- assay system: Mitochondrial respiratory complex II (Mus musculus, UniProt Q8K2B3+Q9CQA3+Q9CXV1+Q9CZB0)
- Sequence (Q8K2B3 43-664): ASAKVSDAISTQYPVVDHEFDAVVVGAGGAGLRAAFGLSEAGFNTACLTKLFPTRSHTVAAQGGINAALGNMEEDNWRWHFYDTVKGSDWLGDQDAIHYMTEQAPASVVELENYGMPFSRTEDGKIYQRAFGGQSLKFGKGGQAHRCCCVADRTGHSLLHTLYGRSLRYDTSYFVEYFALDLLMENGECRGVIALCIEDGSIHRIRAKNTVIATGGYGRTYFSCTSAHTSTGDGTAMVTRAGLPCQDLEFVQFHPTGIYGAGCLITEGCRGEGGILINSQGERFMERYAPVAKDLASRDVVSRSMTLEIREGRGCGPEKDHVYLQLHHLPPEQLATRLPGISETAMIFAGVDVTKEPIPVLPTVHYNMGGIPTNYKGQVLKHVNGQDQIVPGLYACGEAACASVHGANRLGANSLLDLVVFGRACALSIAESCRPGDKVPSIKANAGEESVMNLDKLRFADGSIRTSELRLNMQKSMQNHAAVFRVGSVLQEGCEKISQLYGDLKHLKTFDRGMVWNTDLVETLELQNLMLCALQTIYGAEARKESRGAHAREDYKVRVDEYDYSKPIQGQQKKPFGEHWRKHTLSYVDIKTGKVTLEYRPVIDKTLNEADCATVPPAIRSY
- Sequence (Q9CQA3 31-282): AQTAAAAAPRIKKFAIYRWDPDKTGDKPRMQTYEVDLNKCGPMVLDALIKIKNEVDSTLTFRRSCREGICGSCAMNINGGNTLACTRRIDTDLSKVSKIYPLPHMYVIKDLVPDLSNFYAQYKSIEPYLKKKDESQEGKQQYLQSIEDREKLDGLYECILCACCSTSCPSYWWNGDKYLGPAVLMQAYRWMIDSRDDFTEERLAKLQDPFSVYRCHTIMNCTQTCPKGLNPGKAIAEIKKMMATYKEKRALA
- Sequence (Q9CZB0 30-169): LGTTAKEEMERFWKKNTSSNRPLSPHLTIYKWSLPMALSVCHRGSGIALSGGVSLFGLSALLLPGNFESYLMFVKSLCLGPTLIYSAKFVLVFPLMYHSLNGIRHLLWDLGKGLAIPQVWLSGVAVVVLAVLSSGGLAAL
- Sequence (Q9CXV1 57-159): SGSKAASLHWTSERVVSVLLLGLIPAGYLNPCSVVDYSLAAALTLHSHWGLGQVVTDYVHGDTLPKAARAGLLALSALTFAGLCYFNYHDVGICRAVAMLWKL
- assay info: Complex II inhibition assay
- Type: biochemical
- measurement context: read-out: % Inhibition CII (100 μM), 100 μM; mouse liver mitochondria; mean ±SD of n = 4
property: inhibition at 100 µM (%)

molecule="O=S1(=O)N=C(NCCc2cccc(C(F)(F)F)c2)Nc2ccc(F)cc21 [Compound 41a]" observed_result=20
molecule="COc1ccc(CNC2=NS(=O)(=O)c3cc(Br)ccc3N2)cc1 [Compound 20c]" observed_result=64
molecule="O=S1(=O)N=C(NC2CCCC2)Nc2ccc(Br)cc21 [Compound 22c]" observed_result=25
molecule="COc1ccccc1CNC1=NS(=O)(=O)c2ccc(Cl)cc2N1 [Compound 26b]" observed_result=0
molecule="O=S1(=O)N=C(NCCCc2ccccc2)Nc2ccc(F)cc21 [Compound 23a]" observed_result=14
molecule="CSC1=NS(=O)(=O)c2ccccc2N1C [Compound 42d]" observed_result=0
molecule="O=S1(=O)N=C(NCc2ccccc2)Nc2ccc(Br)cc21 [Compound 21c]" observed_result=36
molecule="O=S1(=O)N=C(NCc2ccc(C(F)(F)F)cc2)Nc2ccc(F)cc21 [Compound 25a]" observed_result=6
molecule="CCNC1=NS(=O)(=O)c2cc(F)ccc2N1 [Compound 19a]" observed_result=0
molecule="O=S1(=O)N=C(NCc2ccc(SC(F)(F)F)cc2)Nc2ccc(F)cc21 [Compound 38a]" observed_result=23

P: O=S1(=O)N=C(NCc2ccc(Cl)cc2)Nc2ccccc21 [Compound 16d]
Q: O=S1(=O)N=C(NCCc2c[nH]c3ccccc23)Nc2cc(Cl)ccc21 [Compound 36b]
R: CCNC1=NS(=O)(=O)c2cc(Br)ccc2N1 [Compound 19c]
S: O=C1Nc2ccc(F)cc2S(=O)(=O)N1 [Compound 11a]
T: O=S1(=O)NC(=S)Nc2ccc(Br)cc21 [Compound 12c]
input: Parameters: sort_field (inhibition at 100 µM), sort_dir (desc). API: response body holds the labels in the requested order.
output: T, Q, R, S, P
(T: 55%, Q: 25%, R: 11%, S: 6%, P: 0%)

P: Cc1ccc(CNC2=NS(=O)(=O)c3cc(Br)ccc3N2)cc1 [Compound 27c]
Q: CSC1=NS(=O)(=O)c2ccccc2N1 [Compound 13d]
input: // task: argmin of inhibition at 100 µM over [ P , Q ] Please identify the chosen entry by its label.
output: Q

1: O=S1(=O)N=C(NC2CCCC2)Nc2ccc(F)cc21 [Compound 22a]
2: C=CCNC1=NS(=O)(=O)c2ccc(Cl)cc2N1 [Compound 32b]
input: In the pair 1 and 2 , the larger recorded inhibition at 100 µM belongs to which? Please identify the chosen entry by its label.
output: 1

Reference source: paper PMC8035258
